The origin of these recorded values is PubChem BioAssay AID2060609.

tested on: 855422-203-R-J1-PDC complex spheroids, viability; assay: Anticancer human tumor 855422-203-R-J1-PDC patient-derived bladder carcinoma cell line growth inhibition [CLK]; settings: second compound 10 µM; first compound 0.316 µM; active means viability on the fitted dose curve at most 10% of control; inactive means the rest;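 further: spheroids exposed to drugs for seven days before readout; 100% = DMSO vehicle control wells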
Possible outcomes: 1 for active, -1 for inactive

Compound	Cat
CC1(C)CCC(CN2CCN(c3ccc(C(=O)NS(=O)(=O)c4ccc(NCC5CCOCC5)c([N+](=O)[O-])c4)c(Oc4cnc5[nH]ccc5c4)c3)CC2)=C(c2ccc(Cl)cc2)C1 + CNC(=O)c1ccc(Nc2nc(OC3CCCC3)c3c(-c4ccc5nc(C)oc5c4)c[nH]c3n2)c(OC)c1	-1
CCc1c2c(nc3ccc(O)cc13)-c1cc3c(c(=O)n1C2)COC(=O)[C@]3(O)CC + CN1CCN(c2cc(C(=O)Nc3cc4cc(-c5cnn(C)c5)ccc4cn3)ccn2)CC1	1
